Just for reference, patent US20130261130A1 is where these values come from.

Target: human neurotrypsin (Homo sapiens)
Experiment: Determination of IC50 for human neurotrypsin
Format: biochemical
Details: human neurotrypsin; method of WO 2006/1103261; read-out: Neurotrypsin IC50
measuredAttribute: pIC50
One number for each entry, as −log10 of the molar value.

Answered cases to consult:
# molecule, targetOfAssay, measuredAttribute, reading
data = [
    ("O=C(O)c1ccc(-c2cn(-c3ccc(Cl)c(C(F)(F)F)c3)nn2)cc1NC(=O)c1sc2ccccc2c1Cl", "human neurotrypsin (Homo sapiens)", "pIC50", 5.26),
    ("O=C(Nc1ccc(C(=O)N2CCC(Cc3ccc(Cl)cc3)CC2)cc1C(=O)O)c1cc2ccc(Cl)cc2s1", "human neurotrypsin (Homo sapiens)", "pIC50", 5.46),
]

Need pIC50 for each of these molecules.
1. O=C(O)c1cc(NC(=O)c2sc3ccccc3c2Cl)ccc1C(=O)Nc1ccc(Cl)cc1 [Example 270]
2. O=C(Nc1ccc(C(=O)N2CCC(c3ccccc3)CC2)cc1C(=O)O)c1cc2ccc(Cl)cc2s1
3. O=C(O)CN(C(=O)c1ccc(C(=O)O)c(NC(=O)c2sc3ccccc3c2Cl)c1)c1ccc(Cl)cc1
4. O=C(O)c1ccc(-c2cn(Cc3c(F)cccc3F)nn2)cc1NC(=O)c1sc2ccccc2c1Cl
5. O=C(Nc1ccc(C(=O)N2CCC(Oc3ccccc3)CC2)cc1C(=O)O)c1cc2ccc(Cl)cc2s1
6. O=C(Nc1ccc(Cl)cc1)c1ccc(C(=O)O)c(NC(=O)c2cc3ccc(Cl)cc3s2)c1

[reply]
1: 4.64; 2: 5.59; 3: 4.58; 4: 4.96; 5: 5.41; 6: 5.59

Hello, I would appreciate it if you could give pIC50 for each entry below.
1. O=C(Nc1ccc(C(=O)O)c(NC(=O)c2sc3ccccc3c2Cl)c1)c1ccc(Cl)s1
2. O=C(Nc1ccc(Cl)cc1)c1ccc(C(=O)O)c(NC(=O)c2sc3ccccc3c2Cl)c1
3. O=C(Nc1ccc(Oc2ccccc2)cc1)c1ccc(C(=O)O)c(NC(=O)c2sc3ccccc3c2Cl)c1
4. O=C(O)c1ccc(N2CC(c3ccc(Cl)cc3)CCC2=O)cc1NC(=O)c1sc2ccccc2c1Cl (stereo not drawn)
5. O=C(Nc1ccc(Cl)cc1)c1ccc(NC(=O)c2[nH]c3ccc(Cl)cc3c2-c2ccccc2)c(C(=O)O)c1
6. O=C(O)c1ccc(-c2cn(Cc3ccccc3)nn2)cc1NC(=O)c1sc2ccccc2c1Cl

[reply]
1. 5.18
2. 5.07
3. 4.63
4. 4.98
5. 5.72
6. 5.03

###

Biological target: human neurotrypsin (Homo sapiens, UniProt P56730)
Test: Determination of IC50 for human neurotrypsin
Assay type: biochemical
Settings: human neurotrypsin; method of WO 2006/1103261; read-out: Neurotrypsin IC50
Doc: threshold 3 µM (exclusive). Items with IC50 beneath it return Fulfilled; others return Not fulfilled.

[ask] Hi there! Is IC50 for Cc1cccc(C)c1C1CCN(C(=O)c2ccc(NC(=O)c3sc4ccccc4c3Cl)c(C(=O)O)c2)CC1 below 3 µM, do you know?
[reply] Not fulfilled

###

Biological target: human neurotrypsin (Homo sapiens, UniProt P56730)
Experiment: Determination of IC50 for human neurotrypsin
Assay type: biochemical
Conditions: human neurotrypsin; method of WO 2006/1103261; read-out: Neurotrypsin IC50
pIC50: −log10 of the molar value.
Each entry gets false if its pIC50 stays under 5, and true if its pIC50 is 5 or above.

Worked cases, answers included:
# molecule, targetOfAssay, qualitativeLabel
measured = [
    ("CC(C)CN(CC(C)C)C(=O)c1ccc(NC(=O)c2ccc(-c3nc4cc(Cl)c(Cl)cc4[nH]3)c(O)c2)c(C(=O)O)c1 [Example 42]", "human neurotrypsin (Homo sapiens, UniProt P56730)", "true"),
    ("O=C(NCc1ccc(Cl)s1)c1ccc(C(=O)O)c(NC(=O)c2sc3ccccc3c2Cl)c1 [Example 90]", "human neurotrypsin (Homo sapiens, UniProt P56730)", "true"),
    ("O=C(O)c1cc(NC(=O)c2sc3ccccc3c2Cl)ccc1C(=O)Nc1ccc(Cl)cc1 [Example 271]", "human neurotrypsin (Homo sapiens, UniProt P56730)", "false"),
]

[ask] Please check the record O=C(O)c1ccc(NCc2ccc(Cl)cc2)cc1NC(=O)c1sc2ccccc2c1Cl [Example 280] and state if its pIC50 is at or above 5.
[reply] true

[ask] Does O=C(Nc1ccc(CCc2ccccc2)cc1)c1ccc(C(=O)O)c(NC(=O)c2sc3ccccc3c2Cl)c1 [Example 63] have a reported pIC50 of at least 5?
[reply] false

[ask] Is pIC50 for O=C(O)c1ccc(Nc2ccc(Cl)cc2)cc1NC(=O)c1sc2ccccc2c1Cl [Example 288] at or above 5?
[reply] true

[ask] Test whether the molecule O=C(Nc1ccccc1O)c1ccc(C(=O)O)c(NC(=O)c2sc3ccccc3c2Cl)c1 [Example 82] records pIC50 of 5 or higher.
[reply] false

[ask] Check if pIC50 >= 5 (inclusive). Item: COc1ccc(-c2ccc(C(=O)O)c(NC(=O)c3sc4ccccc4c3Cl)c2)cc1 [Example 249]
[reply] true

###

Biological target: human neurotrypsin (Homo sapiens, UniProt P56730)
Sequence (P56730 21-875): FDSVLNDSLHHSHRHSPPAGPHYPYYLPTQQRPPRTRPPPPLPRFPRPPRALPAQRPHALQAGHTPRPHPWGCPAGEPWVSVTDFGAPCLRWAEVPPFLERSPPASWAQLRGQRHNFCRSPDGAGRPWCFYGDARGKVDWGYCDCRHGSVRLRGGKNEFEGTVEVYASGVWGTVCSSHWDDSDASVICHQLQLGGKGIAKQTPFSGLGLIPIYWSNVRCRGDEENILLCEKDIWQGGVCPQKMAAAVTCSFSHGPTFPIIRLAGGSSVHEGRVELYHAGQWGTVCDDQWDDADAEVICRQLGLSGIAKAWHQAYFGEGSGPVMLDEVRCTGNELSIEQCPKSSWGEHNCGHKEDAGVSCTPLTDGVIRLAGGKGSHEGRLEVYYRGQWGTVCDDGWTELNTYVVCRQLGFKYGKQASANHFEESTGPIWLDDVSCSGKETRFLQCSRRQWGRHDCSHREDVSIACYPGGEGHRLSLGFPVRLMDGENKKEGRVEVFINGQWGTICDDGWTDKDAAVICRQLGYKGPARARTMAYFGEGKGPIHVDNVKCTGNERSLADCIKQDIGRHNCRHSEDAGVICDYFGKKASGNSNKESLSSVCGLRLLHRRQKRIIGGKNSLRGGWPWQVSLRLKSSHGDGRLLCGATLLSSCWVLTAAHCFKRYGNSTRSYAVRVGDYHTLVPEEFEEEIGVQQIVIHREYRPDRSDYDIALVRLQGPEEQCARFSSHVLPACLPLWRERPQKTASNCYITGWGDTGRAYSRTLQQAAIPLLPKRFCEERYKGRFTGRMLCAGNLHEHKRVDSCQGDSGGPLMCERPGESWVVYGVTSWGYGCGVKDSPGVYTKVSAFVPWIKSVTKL
Test: Determination of IC50 for human neurotrypsin
Format: biochemical
Details: human neurotrypsin; method of WO 2006/1103261; read-out: Neurotrypsin IC50
I'd appreciate it if you could supply IC50 values for the items below.
Answers are plain numbers, in µM.

Look over these answered cases.
# compound, unitsText, IC50
measured = [
    ("COc1ccc(C2CCN(C(=O)c3ccc(NC(=O)c4sc5ccccc5c4Cl)c(C(=O)O)c3)CC2)cc1 [Example 116]", "µM", 2.4),
    ("O=C(O)c1ccc(C(=O)N2CCC(O)(c3ccc(Cl)cc3)CC2)cc1NC(=O)c1sc2ccccc2c1Cl [Example 99]", "µM", 6.9),
]

Respectfully, I request IC50 for each entry included below.
1. O=C(O)c1cc(C(=O)N2CCC(c3ccc(O)cc3)CC2)ccc1NC(=O)c1sc2ccccc2c1Cl [Example 122]
2. O=C(O)c1ccc(-c2cn(Cc3ccc(Cl)s3)nn2)cc1NC(=O)c1sc2ccccc2c1Cl [Example 262]

[reply]
1: 9.4; 2: 7

###

Target: Trypsin (hog trypsin) (Sus scrofa, UniProt P00761)
Sequence (P00761 9-231): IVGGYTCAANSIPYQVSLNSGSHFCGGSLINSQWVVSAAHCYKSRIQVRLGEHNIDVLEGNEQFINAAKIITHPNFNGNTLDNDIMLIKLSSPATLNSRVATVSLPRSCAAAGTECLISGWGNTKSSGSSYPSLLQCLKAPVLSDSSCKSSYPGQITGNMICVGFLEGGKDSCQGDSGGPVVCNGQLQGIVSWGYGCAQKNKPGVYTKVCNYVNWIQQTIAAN
measuredAttribute: IC50

Reported IC50 of O=C(Nc1ccc(Cl)cc1)c1ccc(NC(=O)c2ccc(-c3nc4cc(Cl)c(Cl)cc4[nH]3)cc2)c(C(=O)O)c1 [Example 119] : > 150 µM

###

Target: Plasmin (Homo sapiens, UniProt P00747)
Construct: Plasmin; purchased American diagnostic
Sequence (P00747 581-810 limits assumed): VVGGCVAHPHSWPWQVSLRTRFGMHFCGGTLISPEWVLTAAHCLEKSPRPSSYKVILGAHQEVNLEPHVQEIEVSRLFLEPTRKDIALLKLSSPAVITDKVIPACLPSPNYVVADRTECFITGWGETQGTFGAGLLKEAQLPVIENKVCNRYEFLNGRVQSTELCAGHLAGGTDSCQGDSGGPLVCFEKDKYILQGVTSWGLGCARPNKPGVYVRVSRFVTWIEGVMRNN
Sequence (P00747 97-580 partner limits assumed): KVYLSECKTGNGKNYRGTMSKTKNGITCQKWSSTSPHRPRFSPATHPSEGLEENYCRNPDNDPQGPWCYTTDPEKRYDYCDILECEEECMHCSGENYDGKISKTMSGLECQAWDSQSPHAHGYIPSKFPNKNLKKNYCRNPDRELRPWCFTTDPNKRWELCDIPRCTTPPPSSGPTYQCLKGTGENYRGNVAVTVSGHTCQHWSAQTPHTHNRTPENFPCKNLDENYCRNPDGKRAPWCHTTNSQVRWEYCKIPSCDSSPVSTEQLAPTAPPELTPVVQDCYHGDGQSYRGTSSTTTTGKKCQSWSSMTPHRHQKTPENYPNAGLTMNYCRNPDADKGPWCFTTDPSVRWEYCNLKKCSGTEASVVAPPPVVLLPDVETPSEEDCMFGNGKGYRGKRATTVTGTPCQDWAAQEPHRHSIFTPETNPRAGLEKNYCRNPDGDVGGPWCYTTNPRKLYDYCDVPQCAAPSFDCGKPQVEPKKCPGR
Experiment: Determination of the IC50 for various proteases: plasmin
Type: biochemical
Settings: Mean ± SD
measuredAttribute: pIC50
Numbers only, as −log10 of the molar value.

Sure, the documented pIC50 for O=C(Nc1ccc(Cl)cc1)c1ccc(NC(=O)c2ccc(-c3nc4cc(Cl)c(Cl)cc4[nH]3)cc2)c(C(=O)O)c1 is 5.62

###

Molecular target: Kallikrein (Homo sapiens, UniProt P03952)
Sequence (P03952 whole entry): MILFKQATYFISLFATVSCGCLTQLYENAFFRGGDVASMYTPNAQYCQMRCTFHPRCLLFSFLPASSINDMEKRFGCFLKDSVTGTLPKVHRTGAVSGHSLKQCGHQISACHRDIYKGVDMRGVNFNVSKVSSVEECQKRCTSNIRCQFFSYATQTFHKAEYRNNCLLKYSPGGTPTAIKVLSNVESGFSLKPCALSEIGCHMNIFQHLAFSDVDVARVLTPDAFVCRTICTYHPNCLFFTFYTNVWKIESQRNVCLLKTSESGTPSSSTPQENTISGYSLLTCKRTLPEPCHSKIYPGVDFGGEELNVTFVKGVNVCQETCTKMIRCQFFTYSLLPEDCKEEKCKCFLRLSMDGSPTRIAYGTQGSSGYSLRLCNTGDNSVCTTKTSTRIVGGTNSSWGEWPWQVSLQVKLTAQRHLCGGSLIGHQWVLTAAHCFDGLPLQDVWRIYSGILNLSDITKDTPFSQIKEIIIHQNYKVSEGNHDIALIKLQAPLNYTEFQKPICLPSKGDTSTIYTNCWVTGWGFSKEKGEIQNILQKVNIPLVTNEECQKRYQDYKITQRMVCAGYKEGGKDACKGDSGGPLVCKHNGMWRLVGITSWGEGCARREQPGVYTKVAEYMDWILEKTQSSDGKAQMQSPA
measuredAttribute: pIC50
Give bare numbers, as −log10 of the molar value.

GET /value?item= O=C(Nc1ccc(Cl)cc1)c1ccc(NC(=O)c2ccc(-c3nc4cc(Cl)c(Cl)cc4[nH]3)cc2)c(C(=O)O)c1 &field=pIC50 returns 4.57
